# testTarget: T1, PRLR-expressing cells (T47D) (Homo sapiens, UniProt P16471)
# T1 construct: a native PRLR expressing cell line (T47D); endogenous in cells; host or cells: T47D
# T1 sequence (P16471 25-622): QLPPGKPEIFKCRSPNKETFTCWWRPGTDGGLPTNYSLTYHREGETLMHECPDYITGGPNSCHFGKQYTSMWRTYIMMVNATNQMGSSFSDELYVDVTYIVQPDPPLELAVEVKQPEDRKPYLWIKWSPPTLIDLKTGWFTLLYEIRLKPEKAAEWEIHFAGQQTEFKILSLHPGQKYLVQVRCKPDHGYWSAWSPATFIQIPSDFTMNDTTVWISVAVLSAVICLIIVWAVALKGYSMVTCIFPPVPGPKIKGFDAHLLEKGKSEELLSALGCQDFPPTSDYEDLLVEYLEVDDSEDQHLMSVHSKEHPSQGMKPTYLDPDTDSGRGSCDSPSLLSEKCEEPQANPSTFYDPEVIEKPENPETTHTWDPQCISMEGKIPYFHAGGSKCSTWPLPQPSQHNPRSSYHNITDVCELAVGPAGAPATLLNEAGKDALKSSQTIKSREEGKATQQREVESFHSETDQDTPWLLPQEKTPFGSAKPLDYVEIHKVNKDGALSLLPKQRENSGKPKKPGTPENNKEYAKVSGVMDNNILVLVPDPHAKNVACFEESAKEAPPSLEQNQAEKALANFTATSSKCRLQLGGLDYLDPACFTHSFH
# procedureDetails: Antibody binding and internalization by PRLR-expressing cells (imaging)
# Type: cell-based
# studyConditions: [mAb] (0.67 nM), alexa488 intensity in intracellular vesicles, 1 h at 37° C.
measuredMetric: % Internalization relative to Control I (%)
Answers are plain numbers, in %.

// recorded % Internalization relative to Control I for H1H6804P: anti-PRLR antibody, human IgG1 Fc; HCVR/LCVR SEQ ID NOs 242/250 (antibody, V domains shown, human IgG1 Fc) VH: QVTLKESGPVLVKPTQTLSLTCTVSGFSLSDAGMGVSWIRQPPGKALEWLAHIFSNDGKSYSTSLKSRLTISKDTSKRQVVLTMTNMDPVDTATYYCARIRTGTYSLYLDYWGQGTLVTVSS VL: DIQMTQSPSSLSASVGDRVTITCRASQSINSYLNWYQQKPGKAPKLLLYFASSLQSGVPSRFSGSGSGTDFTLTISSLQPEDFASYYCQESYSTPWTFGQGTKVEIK : 138.9

Source listed as patent US9688764B2.
